- assay_method_text: Permeability across human Caco2 cells
- Format: ADME, cell-based
- condition_set: Caco-2, read-out: permeability
assay_metric: Papp

(Q) For Cc1cc2cc(c1)C(=O)N[C@@H](c1ccccc1)C/C=C/COC[C@@H]([C@H](O)CNCc1cccc(C(C)C)c1)NC2=O , what is its reported Papp?
(A) ≤ 1 ×10⁻⁶ cm/s

(Q) For CC(C)c1cccc(CNC[C@@H](O)[C@@H]2COC/C=C/CCNC(=O)c3cc(cc(N(C)S(C)(=O)=O)c3)C(=O)N2)c1 , what is its reported Papp?
(A) ≤ 1 ×10⁻⁶ cm/s

(Q) For CN(c1cc2cc(c1)C(=O)N[C@H]([C@H](O)CNCc1ccccc1)COC/C=C/CCNC2=O)S(C)(=O)=O , what is its reported Papp?
(A) ≤ 1 ×10⁻⁶ cm/s

(Q) For CC(C)c1cccc(CNC[C@@H](O)[C@@H]2COC/C=C/CCCNC(=O)c3cc(cc(N(C)S(C)(=O)=O)c3)C(=O)N2)c1 , what is its reported Papp?
(A) ≤ 1 ×10⁻⁶ cm/s

Ref: ChEMBL document CHEMBL2046431
